Give measured MIC for each item. Keep answers brief.
# Tested on: Trichophyton mentagrophytes
# experimental.protocol: Antifungal activity against Trichophyton mentagrophytes IFO 40996
# Format: functional
One number for each entry, in µg/mL.

INSERT INTO assay_data (mol, experimental_target, reported_property, observed_value) VALUES
  ('CCCCCCCCCCC/C=C/C[C@H](OS(=O)(=O)O)[C@H](O)[C@H](N)CO', 'Trichophyton mentagrophytes', 'MIC', 50);

Moving on to another molecule below.
// query MIC value for entry `C[C@@H]1[C@H](O)[C@@H](C)/C=C/C=C/C=C/C=C/C=C/C=C/C=C/[C@H](O[C@@H]2O[C@H](C)[C@@H](O)[C@H](N)[C@@H]2O)C[C@@H]2O[C@](O)(C[C@@H](O)C[C@@H](O)[C@H](O)CC[C@@H](O)C[C@@H](O)CC(=O)O[C@H]1C)C[C@H](O)[C@H]2C(=O)O` 2

Measured values drawn from ChEMBL document CHEMBL1938237 for this set.
